Biological target: human A2a adenosine receptor (Homo sapiens)
Sequence (P29274 whole entry): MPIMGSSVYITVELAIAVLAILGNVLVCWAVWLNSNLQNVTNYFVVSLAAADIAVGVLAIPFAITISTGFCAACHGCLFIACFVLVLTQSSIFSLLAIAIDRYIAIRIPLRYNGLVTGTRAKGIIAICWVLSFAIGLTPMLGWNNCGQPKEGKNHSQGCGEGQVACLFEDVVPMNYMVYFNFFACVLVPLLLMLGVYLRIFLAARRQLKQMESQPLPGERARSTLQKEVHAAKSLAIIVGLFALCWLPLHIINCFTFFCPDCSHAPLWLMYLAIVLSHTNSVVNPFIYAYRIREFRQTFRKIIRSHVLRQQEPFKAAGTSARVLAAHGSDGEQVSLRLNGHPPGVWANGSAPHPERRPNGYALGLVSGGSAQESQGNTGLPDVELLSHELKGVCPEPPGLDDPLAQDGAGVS
Experiment: Ligand Binding Assay for Adenosine A2a Receptor (A2A-B)
Conditions: plasma membrane of HEK293 cells containing human A2a receptor, radioligand [3H]CGS21680
Values of Ki strictly less than 30 nM map to 1, and values of at least 30 nM map to 0.

COc1cccnc1Cc1cc2c(N)nc(-c3cccc(C#N)c3)nc2s1 [Example 34]    1
COc1cccnc1C(O)c1cc2c(N)nc(-c3cccc(C#N)c3)nc2s1 (stereo not drawn) [Example 33]    1
COc1ncccc1Cc1cc2c(N)nc(-c3cccc(C#N)c3)nc2s1 [Example 10]    0
COc1ncccc1C(O)c1cc2c(N)nc(-c3cccc(C#N)c3)nc2s1 (stereo not drawn) [Example 9]    1
N#Cc1cccc(-c2nc(N)c3cc(Cc4cccnc4Cl)sc3n2)c1 [Example 35]    1
N#Cc1cccc(-c2nc(N)c3cc(Cc4ncccc4F)sc3n2)c1 [Example 38]    0
N#Cc1cccc(-c2nc(N)c3cc(C(O)c4cccnc4Cl)sc3n2)c1 (stereo not drawn) [Example 30]    0
N#Cc1cccc(-c2nc(N)c3cc(C(O)c4ccncc4Cl)sc3n2)c1 (stereo not drawn) [Example 21]    0
N#Cc1cccc(-c2nc(N)c3cc(C(O)c4ccccn4)sc3n2)c1 (stereo not drawn) [Example 15]    0

// provenance: patent US20100093722A1
